Below, each entry is listed with its recorded IC50.
tested on: MGC-803; assay: Antiproliferative activity against human MGC803 cells after 72 hrs by MTT assay; assay type: functional, cell-based; conditions: MGC-803, 72 h

Use these answered entries as a reference point.
Cpd smiles: O=C(COc1ccc(C(=O)/C=C/c2ccccc2Br)cc1)N[C@H]1CCOC1=O
Experimental target: MGC-803
IC50: 12.2 µM
//
Cpd smiles: CC(=O)c1ccc(OCCSC(=S)N[C@H]2CCOC2=O)cc1
Experimental target: MGC-803
IC50: > 64 µM

Briefly, IC50 measured for `C=CCc1ccc(OCCSC(=S)N[C@H]2CCOC2=O)c(OC)c1` : 27.9 µM

Looking up `O=C(COc1ccc(C(=O)/C=C/c2cccc(Cl)c2)cc1)N[C@H]1CCOC1=O` , I found its IC50 recorded as 29.1 µM

# molecule `Cc1cc(Cl)ccc1NCC(=O)N[C@H]1CCOC1=O` ; its IC50 = > 64 µM

// field: IC50; key: `O=C(CNc1ccc(Br)cc1)N[C@H]1CCOC1=O` ; value = > 64 µM

The reported value for `O=C(COc1ccc(C(=O)/C=C/c2cccc([N+](=O)[O-])c2)cc1)N[C@H]1CCOC1=O` in terms of IC50 is > 64 µM

Lab book: IC50 of `O=C(CNc1cccc(Cl)c1)N[C@H]1CCOC1=O` noted as > 64 µM

Short answer for `O=C1OCC[C@@H]1NC(=S)SCCOc1ccc([N+](=O)[O-])cc1` : IC50 was > 100 µM

----------
test system: PC-3; test: Antiproliferative activity against human PC3 cells after 72 hrs by MTT assay; format: functional, cell-based; conditions: PC-3, 72 h
pIC50: −log10 of the molar value.
Experimental readout: pIC50

Cpd smiles: O=C(COc1ccc(C(=O)/C=C/c2ccc(Br)cc2)cc1)N[C@H]1CCOC1=O
pIC50: < 4.19

Measured pIC50 for this entry `O=C(CNc1ccc(Cl)cc1)N[C@H]1CCOC1=O` on PC-3: < 4.19

I looked up `O=C(CNc1ccccc1F)N[C@H]1CCOC1=O` and its pIC50 for PC-3 was < 4.19

----------
The entries below come with measured pIC50 values attached.
tested on: PC-3; test: Antiproliferative activity against human PC3 cells after 72 hrs by MTT assay; format: functional, cell-based; conditions: PC-3, 72 h
pIC50: −log10 of the molar value.

Cpd smiles: Cc1ccc(C(C)C)c(OCCSC(=S)N[C@H]2CCOC2=O)c1
Experimental readout: pIC50
Observed: < 4.19

Cpd smiles: O=C1OCC[C@@H]1NC(=S)SCCOc1ccccc1Cc1ccccc1
Experimental readout: pIC50
Observed: < 4.19

Cpd smiles: O=C(CNc1ccccc1)N[C@H]1CCOC1=O
Experimental readout: pIC50
Observed: < 4.19

Cpd smiles: CCCCCCCCCCSC(=S)N[C@H]1CCOC1=O
Experimental readout: pIC50
Observed: < 4.19

Now consider the entry below.
Noted for `Cc1cc(Cl)ccc1NCC(=O)N[C@H]1CCOC1=O` : its pIC50 reads < 4.19

----------
system: PC-3; experiment: Antiproliferative activity against human PC3 cells after 72 hrs by MTT assay; format: functional, cell-based; settings: PC-3, 72 h
pIC50: −log10 of the molar value.
Experimental readout: pIC50

Cpd smiles: O=C(CNc1ccc(Br)cc1)N[C@H]1CCOC1=O
Observed: < 4.19

Form field pIC50, entry `O=C(CNc1ccccc1Cl)N[C@H]1CCOC1=O` : < 4.19

Form field pIC50, entry `O=C(CNc1ccc(Cl)cc1Cl)N[C@H]1CCOC1=O` : < 4.19
